system: human VPAC2 (Homo sapiens, UniProt P41587)
Construct: expressed in transfected cells
Sequence (P41587 24-438): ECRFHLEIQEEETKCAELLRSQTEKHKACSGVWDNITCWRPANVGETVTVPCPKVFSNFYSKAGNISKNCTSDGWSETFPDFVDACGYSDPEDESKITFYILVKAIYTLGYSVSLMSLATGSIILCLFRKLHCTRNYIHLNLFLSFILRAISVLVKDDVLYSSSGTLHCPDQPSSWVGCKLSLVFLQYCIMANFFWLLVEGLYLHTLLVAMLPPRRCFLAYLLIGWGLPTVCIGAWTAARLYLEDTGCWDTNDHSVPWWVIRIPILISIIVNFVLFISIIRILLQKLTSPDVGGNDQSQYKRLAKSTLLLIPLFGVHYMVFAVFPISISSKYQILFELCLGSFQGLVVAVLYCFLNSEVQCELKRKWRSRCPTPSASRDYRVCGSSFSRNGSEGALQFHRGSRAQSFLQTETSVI
assay_protocol: Filter binding assay, membranes of stable VPAC2 cell line, 125I-labeled VIP tracer (Table 2)
measurement_setup: read-out: Human VPAC2 Receptor Binding
Where no end group is shown, it is not given here. [ ]: non-standard residue; d: D form. The star is where a group is joined. Hexanoyl = CCCCCC(=O)*; Aib = CC(C)(N)C(=O)O
measurement_name: IC50

Examples with answers:
Requested field: IC50. Item: HSDAVFTDNYTRLRRQVAARRYLQSIRNRRYGGPSSGAPPPS [Agonist P71] 1.52 nM

Requested field: IC50. Item: H-HSDAVFTDNYTRLRKQVAARKYLQSIKNKRYGGPSSGAPPPS [Agonist P20] 2.5 nM

Requested field: IC50. Item: Hexanoyl-HSDAVFTDNYTRLKKQVAAKKYLQSIKNKRYGGPSSGAPPPS [Agonist P171] 5.81 nM

Requested field: IC50. Item: Hexanoyl-HSDAVFTDNYTRL[Aib]KQVAAAKYLQSIKNKRYGGPSSGAPPPS [Agonist P260] 4.79 nM

Requested field: IC50. Item: Hexanoyl-HSDAVFTDNYTRLRKQVAAKKYLQLIKNKRYGGPSSGAPPPS [Agonist P114] 0.56 nM

New cases:
Requested field: IC50. Item: Hexanoyl-HSDAVFTDNYTRLRKQVAAIKYLQSIKNKRYGGPSSGAPPPS [Agonist P149] 0.61 nM

Requested field: IC50. Item: Hexanoyl-HSDAVFTDNYTRL[Aib]KQLAAK[Aib]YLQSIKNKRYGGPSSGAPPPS [Agonist P241] 18.1 nM

Requested field: IC50. Item: Hexanoyl-HSDAVFTDNYTRL[Aib]KQVAALKYLQSIKNKRYGGPSSGAPPPS [Agonist P259] 13.2 nM
